This section presents binders with their documented IC50 (nM) in Murine IL-21R-BaF3 Neutralization Assay values.
target: murine IL-21R expressed on cells (murine, UniProt Q9JHX3 20-529); assay: cell-based or functional assay
Sequence (Q9JHX3 20-529 limits assumed): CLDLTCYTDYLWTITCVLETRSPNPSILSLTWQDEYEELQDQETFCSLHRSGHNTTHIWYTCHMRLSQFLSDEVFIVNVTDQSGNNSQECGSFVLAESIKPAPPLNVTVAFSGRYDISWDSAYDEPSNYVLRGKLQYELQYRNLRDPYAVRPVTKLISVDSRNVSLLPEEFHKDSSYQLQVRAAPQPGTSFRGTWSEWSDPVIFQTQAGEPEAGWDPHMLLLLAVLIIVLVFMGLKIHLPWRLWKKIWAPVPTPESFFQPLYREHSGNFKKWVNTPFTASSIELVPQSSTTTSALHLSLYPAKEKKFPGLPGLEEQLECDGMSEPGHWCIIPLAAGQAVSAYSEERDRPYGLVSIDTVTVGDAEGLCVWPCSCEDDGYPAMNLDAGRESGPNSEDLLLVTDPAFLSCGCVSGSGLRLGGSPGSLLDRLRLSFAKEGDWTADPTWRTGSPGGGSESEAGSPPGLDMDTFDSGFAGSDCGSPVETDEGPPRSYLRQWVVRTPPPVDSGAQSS
Express the result in nM but write the number alone.

Ask: Which IC50 (nM) in Murine IL-21R-BaF3 Neutralization Assay value belongs to scFv L12 (scFv) scFv: QVQLQESGPGLVKTSETLSLTCAVSGYSISSGYYWGWIRQPPGKGLEWIGSISHTGNTYYNPPLKSRVTISVDTSKNQFSLKLSSVTAADTAVYYCARGGGISRPEYWGKGTLVTVSSGGGGSGGGGSGGGGSALSSELTQDPPVSVALGQTVTLTCQGDSLRTYYASWYQQKSGQAPILLLYGKHKRPSGIPDRFSGSTSGDTASLTITGAQAEDEADYYCVARGTRGNPHVLFGGGTQLTVL ?
Result: 87.8

Consider the additional binder presented here.
Ask: Which IC50 (nM) in Murine IL-21R-BaF3 Neutralization Assay value belongs to scFv L24 (scFv) scFv: QVQLQESGPGLVKTSETLSLTCAVSGYSISSGYYWGWIRQPPGKGLEWIGSISHTGNTYYNPPLKSRVTISVDTSKNQFSLKLSSVTAADTAVYYCARGGGISRPEYWGKGTLVTVSSGGGGSGGGGSGGGGSALSSELTQDPPVSVALGQTVTLTCQGDSLRTYYASWYQQKSGQAPILLLYGKHKRPSGIPDRFSGSTSGDTASLTITGAQAEDEADYYCIARSNKGNPHVLFGGGTQLTVL ?
Result: 3.73
